system: MDA-MB-231 (breast cancer); assay: Antiproliferative activity (CCK-8 cell viability), MDA-MB-231; format: cell-based; details: Homo sapiens, Compound concentration: 10 μM, 72 h, read-out: Antiproliferative activity in cancerous cells, MDA-MB-231 (inhibition of cell growth)
test-readout: inhibition at 10 µM

{"molecule": "COc1ccc(Oc2ccc(/C=C3/C(C)=C(CC(=O)O)c4cc(F)ccc43)cn2)cc1", "tested-on": "MDA-MB-231 (breast cancer)", "inhibition at 10 µM": "< 30%"}
{"molecule": "CC1=C(CC(=O)O)c2cc(F)ccc2/C1=C\\c1ccc(COCc2ccc(F)c(Cl)c2)cc1", "tested-on": "MDA-MB-231 (breast cancer)", "inhibition at 10 µM": "≥ 50%"}
{"molecule": "COc1ccc2c(c1)C(CC(=O)O)=C(C)/C2=C/c1ccc(COc2ccc(F)cc2)cc1", "tested-on": "MDA-MB-231 (breast cancer)", "inhibition at 10 µM": "≥ 50%"}
{"molecule": "CC1=C(CCOC(=O)N(C)N)c2cc(F)ccc2/C1=C\\c1ccc(Oc2ccc(F)cc2)cc1", "tested-on": "MDA-MB-231 (breast cancer)", "inhibition at 10 µM": "≥ 50%"}
{"molecule": "CC1=C(CC(=O)O)c2cc(Cl)c(Cl)cc2/C1=C/c1ccc(Oc2ccc(F)cc2)cc1", "tested-on": "MDA-MB-231 (breast cancer)", "inhibition at 10 µM": "≥ 50%"}
{"molecule": "CC1=C(CC(=O)O)c2cc(F)ccc2/C1=C\\c1ccc(CCCCc2ccc(F)cc2)cc1", "tested-on": "MDA-MB-231 (breast cancer)", "inhibition at 10 µM": "< 30%"}
{"molecule": "CC1=C(CC(=O)O)c2cc(F)ccc2/C1=C\\c1ccc(CO)cc1", "tested-on": "MDA-MB-231 (breast cancer)", "inhibition at 10 µM": "≥ 50%"}
{"molecule": "CC1=C(CC(=O)O)c2cc(F)ccc2/C1=C\\c1cccc(Oc2ccc(O)c(Cl)c2)c1", "tested-on": "MDA-MB-231 (breast cancer)", "inhibition at 10 µM": "≥ 50%"}
{"molecule": "O=C(O)CC1=C(Cc2ccc(C(F)(F)F)cc2)/C(=C/c2cccc(Oc3ccccc3)c2)c2ccc(F)cc21", "tested-on": "MDA-MB-231 (breast cancer)", "inhibition at 10 µM": "≥ 50%"}
{"molecule": "CC1=C(CC(=O)O)c2cc(F)ccc2/C1=C\\c1ccc(CCCc2ccc(F)cc2)cc1", "tested-on": "MDA-MB-231 (breast cancer)", "inhibition at 10 µM": "< 30%"}

What value of measured inhibition at 10 µM is listed for CC1=C(CC(=O)O)c2cc(F)ccc2/C1=C\c1ccc(Oc2ccc(Cl)c(F)c2)cc1 ?
≥ 50%

# query: inhibition at 10 µM of entry CC1=C(CC(=O)O)c2cc(Cl)ccc2/C1=C\c1ccc(CCc2ccccc2)cc1
< 30%

---

tested on: A431 (epidermoid carcinoma); test: Antiproliferative activity (CCK-8 cell viability), A431; assay type: cell-based; conditions: Homo sapiens, A-431, Compound concentration: 30 μM, 72 h, read-out: Antiproliferative activity in cancerous cells, A431
inhibition at 30 µM reference

Worked cases, answers included:
{"compound": "CC1=C(CC(=O)O)c2cc(F)ccc2/C1=C\\c1ccc(Sc2nc3ccccc3[nH]2)cc1", "inhibition at 30 µM": "< 30%"}
{"compound": "CC1=C(CC(=O)O)c2cc(Br)ccc2/C1=C\\c1ccc(Oc2ccc(F)cc2)cc1", "inhibition at 30 µM": "30 to 50%"}
{"compound": "CC1=C(CC(=O)O)c2cc(F)ccc2/C1=C\\c1cccc([S+]([O-])c2ccc(F)cc2)c1 (stereo not shown)", "inhibition at 30 µM": "30 to 50%"}
{"compound": "CC1=C(CC(=O)N2CCN(CCO)CC2)c2cc(F)ccc2/C1=C\\c1ccc(Oc2ccc(F)cc2)cc1", "inhibition at 30 µM": "30 to 50%"}
{"compound": "CC1=C(CC(=O)NCCN2CCOCC2)c2cc(F)ccc2/C1=C\\c1ccc(Oc2ccc(F)cc2)cc1", "inhibition at 30 µM": "< 30%"}
{"compound": "CC1=C(CCOC(=O)n2ccnc2)c2cc(F)ccc2/C1=C\\c1ccc(Oc2ccc(F)cc2)cc1", "inhibition at 30 µM": "< 30%"}

The record that follows has no inhibition at 30 µM shown yet.
Name the recorded inhibition at 30 µM for O=C(O)CC1=C/C(=C/c2cccc(Oc3ccccc3)c2)c2cc(OCC(F)(F)F)ccc21 .
< 30%

---

test system: A431 (epidermoid carcinoma); assay: Antiproliferative activity (CCK-8 cell viability), A431; assay type: cell-based; settings: Homo sapiens, A-431, Compound concentration: 10 μM, 72 h, read-out: Antiproliferative activity in cancerous cells, A431 (inhibition of cell growth)
Attribute: inhibition at 10 µM

Some entries whose results are on file:
{"substance-smiles": "CC1=C(CC(=O)O)c2cc(F)ccc2/C1=C\\c1ccc(COCc2ccc(C(F)F)cc2)cc1", "measured-value": "≥ 50%"}
{"substance-smiles": "CC1=C(CC(=O)O)c2cc(Br)ccc2/C1=C\\c1cccc(Oc2ccc(Cl)cc2)c1", "measured-value": "≥ 50%"}
{"substance-smiles": "CC1=C(CC(=O)O)c2cc(F)ccc2/C1=C\\c1ccc(Oc2ccc(Cl)cc2)cc1C", "measured-value": "≥ 50%"}
{"substance-smiles": "CC1=C(CC(=O)O)c2cc(F)ccc2/C1=C\\c1ccc(CN(CCc2ccccc2)c2ccccc2)cc1", "measured-value": "≥ 50%"}

Consider the compound shown here: CC1=C(CC(=O)O)c2c(F)cccc2/C1=C\c1ccc(Oc2ccc(F)cc2)cc1 What is its recorded inhibition at 10 µM?
30 to 50%

Give the measured inhibition at 10 µM of C/C(=C1/C=C(CC(=O)O)c2ccccc21)c1ccc(F)cc1 .
< 30%

---

test system: A431 (epidermoid carcinoma); assay: Antiproliferative activity (CCK-8 cell viability), A431; type: cell-based; conditions: Homo sapiens, A-431, Compound concentration: 10 μM, 72 h, read-out: Antiproliferative activity in cancerous cells, A431 (inhibition of cell growth)
Below, each entry is listed with its recorded inhibition at 10 µM.

Before answering, review these 3 worked examples.
{"substance-smiles": "COc1ccc(CCCc2ccc(/C=C3/C(C)=C(CC(=O)O)c4cc(F)ccc43)cc2)cc1", "measured-value": "≥ 50%"}
{"substance-smiles": "COc1ccc(Oc2ccc(/C=C3/C(C)=C(CC(=O)O)c4cc(Cl)ccc43)cc2)cc1", "measured-value": "≥ 50%"}
{"substance-smiles": "CC1=C(CC(=O)O)c2cc(C)ccc2/C1=C\\c1ccc(COc2ccccc2)cc1", "measured-value": "< 30%"}

Which inhibition at 10 µM reading was recorded for the molecule CC1=C(CC(=O)O)c2cc(F)ccc2/C1=C\c1cccc(Oc2cccc(Cl)c2)c1 ?
≥ 50%

Which inhibition at 10 µM is reported for this molecule? CC1=C(CC(=O)O)c2c(F)cc(F)cc2/C1=C\c1ccc(C(C)C)cc1
< 30%

---

Tested on: MDA-MB-231 (breast cancer)
Experiment: Antiproliferative activity (CCK-8 cell viability), MDA-MB-231
Type: cell-based
Conditions: Homo sapiens, Compound concentration: 10 μM, 72 h, read-out: Antiproliferative activity in cancerous cells, MDA-MB-231 (inhibition of cell growth)
Description: The antiproliferative activity of a compound was determined in the following cell lines: MDA-MB-231 (breast cancer), HepG2 (liver cancer), SW480 (colon cancer), B16F10 (malignant melanoma), A431 (epidermoid carcinoma), A549 (lung adenocarcinoma), and HeLa (cervical cancer). […] Briefly cells were seeded in a 96-well plate at a density of 2,000-5,000 cells/well. […] After incubation at 37° C. for 4 h, the absorbance value of each well was determined using a multi-well plate reader at 450 nm. […]
test-readout: inhibition at 10 µM

{"substance-smiles": "COc1ccc(CCCc2ccc(/C=C3/C(C)=C(CC(=O)O)c4cc(Br)ccc43)cc2)cc1", "measured-value": "≥ 50%"}

Then this compound:
Kindly state the measured inhibition at 10 µM obtained for CC1=C(CC(=O)O)c2cc(F)ccc2/C1=C\c1ccc(COCc2ccc(C(F)F)cc2)cc1 with MDA-MB-231 (breast cancer).
≥ 50%

---

tested on: A431 (epidermoid carcinoma); test: Antiproliferative activity (CCK-8 cell viability), A431; format: cell-based; conditions: Homo sapiens, A-431, Compound concentration: 10 μM, 72 h, read-out: Antiproliferative activity in cancerous cells, A431 (inhibition of cell growth)
test-readout: inhibition at 10 µM

As a guide, the following entries are already answered.
{"molecule": "CC1=C(CC(=O)O)c2ccc(F)c(F)c2/C1=C\\c1ccc(Oc2ccc(F)cc2)cc1 [C10]", "inhibition at 10 µM": "≥ 50%"}
{"molecule": "O=C(O)CC1=C(CC2CCCC2)/C(=C/c2cccc(Oc3ccccc3)c2)c2ccc(F)cc21 [C20]", "inhibition at 10 µM": "≥ 50%"}

Turning to the following molecule.
What does the record list as inhibition at 10 µM for CC1=C(CC(=O)O)c2ccc(F)c(F)c2/C1=C\c1cccc(Oc2ccccc2)c1 [C23] ?
< 30%
